- System: HCC-2998 colon
- measurement-notes: NCI tumour cell line growth inhibition, 48 h
assay-metric: GI50

Look over these answered cases.
// query GET /values?readout=GI50&item= Cc1c(C)[n+](=O)c(C)c(C)n1[O-]
// result > 100 µM

// query Consider the molecule C=C1C(=O)O[C@H]2[C@H]1CC/C(COC(=O)CSCC(=O)OC/C1=C/CC[C@@]3(C)O[C@H]3[C@H]3OC(=O)C(=C)[C@@H]3CC1)=C\CC[C@@]1(C)O[C@@H]21 and give its measured GI50.
// result 2.12 µM

// query Bench note: what GI50 did Cc1ccc(SC2=CC(=O)c3nc4ccccc4c4ccnc2c34)cc1 show?
// result > 67.8 µM

// query For the molecule COc1ccc2c(c1)C(c1ccccc1Cl)=Nc1c(n[nH]c1C)N2 , what GI50 is on record?
// result > 25 µM

Further cases:
// query Look up GI50: Cc1c2c[n+](C(C)C)ccc2c(C)c2c1[nH]c1ccccc12
// result 2.99 µM

// query So what's the measured GI50 for this one? CN1CCN(Cc2ccc(NC(=O)c3ccc(C#Cc4c(N)ncc5ccc(F)cc45)cc3)cc2C(F)(F)F)CC1
// result 0.87 µM
